# TESTED_SYSTEM: Sarcoplasmic/endoplasmic reticulum calcium ATPase 1 (Homo sapiens, UniProt O14983)
# Sequence (O14983 whole entry, looked up): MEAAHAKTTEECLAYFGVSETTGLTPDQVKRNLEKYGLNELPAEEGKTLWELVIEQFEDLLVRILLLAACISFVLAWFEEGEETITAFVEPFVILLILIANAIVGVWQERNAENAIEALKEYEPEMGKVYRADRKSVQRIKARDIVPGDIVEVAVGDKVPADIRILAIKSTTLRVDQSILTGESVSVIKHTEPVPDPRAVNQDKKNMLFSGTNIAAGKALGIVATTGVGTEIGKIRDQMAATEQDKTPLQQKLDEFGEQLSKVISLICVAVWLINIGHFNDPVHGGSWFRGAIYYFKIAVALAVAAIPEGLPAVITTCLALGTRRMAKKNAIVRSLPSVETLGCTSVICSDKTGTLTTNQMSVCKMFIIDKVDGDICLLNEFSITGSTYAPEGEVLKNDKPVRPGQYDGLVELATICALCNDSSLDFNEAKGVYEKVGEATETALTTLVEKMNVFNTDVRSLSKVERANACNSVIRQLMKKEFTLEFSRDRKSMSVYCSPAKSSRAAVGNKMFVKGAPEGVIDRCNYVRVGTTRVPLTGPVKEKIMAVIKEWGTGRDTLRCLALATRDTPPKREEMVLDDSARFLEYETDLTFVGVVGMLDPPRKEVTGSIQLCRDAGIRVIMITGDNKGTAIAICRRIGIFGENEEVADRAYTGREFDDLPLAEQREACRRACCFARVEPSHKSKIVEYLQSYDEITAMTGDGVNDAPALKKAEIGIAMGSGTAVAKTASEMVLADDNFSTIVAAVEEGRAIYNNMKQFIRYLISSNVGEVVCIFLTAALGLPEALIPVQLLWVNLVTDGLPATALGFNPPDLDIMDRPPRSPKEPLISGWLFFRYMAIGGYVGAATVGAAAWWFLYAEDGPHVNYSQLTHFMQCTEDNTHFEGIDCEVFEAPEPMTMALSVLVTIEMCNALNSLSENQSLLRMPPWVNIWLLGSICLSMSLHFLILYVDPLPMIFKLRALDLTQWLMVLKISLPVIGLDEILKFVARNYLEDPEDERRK
# EXPERIMENT_SUMMARY: Inhibitory potency against sarco- endoplasmic reticulum calcium-ATPase in relative to thapsigargin
In plain terms, low RIC50, meaning strictly below 0.4, gives true, and everything else gives false.

Reference set, count: 5
COMPOUND: C/C=C(/C)C(=O)O[C@H]1C(C)=C2[C@H]([C@@H]1OC(=O)CCCCCCC)[C@@](C)(OC(C)=O)C[C@H](OC(=O)c1ccc(N)cc1)[C@@]1(O)[C@H]2O[C@H](O)[C@@]1(C)O
ANSWER_LABEL: false
--
COMPOUND: C/C=C(/C)C(=O)O[C@H]1C(C)=C2[C@H]([C@@H]1OC(=O)CCCCC)[C@@](C)(OC(C)=O)C[C@H](OC(=O)CCC)[C@@]1(O)[C@H]2O[C@H](OCC)[C@@]1(C)O
ANSWER_LABEL: false
--
COMPOUND: C/C=C(/C)C(=O)O[C@H]1C(C)=C2[C@H]([C@@H]1OC(=O)CCCCCCC)[C@@](C)(OC(C)=O)C[C@H](OC(=O)CCCCCN)[C@@]1(O)[C@H]2O[C@H](O)[C@@]1(C)O
ANSWER_LABEL: true
--
COMPOUND: C/C=C(/C)C(=O)O[C@H]1C(C)=C2[C@H]([C@@H]1OC(=O)CCCCCCC)[C@@](C)(OC(C)=O)C[C@H](OC(=O)CCCc1ccc(N)cc1)[C@@]1(O)[C@H]2O[C@H](O)[C@@]1(C)O
ANSWER_LABEL: false
--
COMPOUND: C/C=C(/C)C(=O)O[C@H]1C(C)=C2[C@H]([C@@H]1OC(=O)CCCCCCC)[C@@](C)(OC(C)=O)C[C@H](OC(=O)CCC)[C@@]1(O)[C@H]2OC(=O)[C@@]1(C)O (stereo in doubt; form 1)
ANSWER_LABEL: false

// query For CCCCCCCC(=O)O[C@@H]1C(=O)C(C)=C2[C@H]1[C@@](C)(OC(C)=O)C[C@H](OC(=O)CCC)[C@@]1(O)[C@H]2OC(=O)[C@@]1(C)O , is the recorded RIC50 below the cut-off of 0.4?
// result true

// query Does the reported RIC50 of C/C=C(/C)C(=O)O[C@H]1C(C)=C2[C@H]([C@@H]1OC(=O)CCCCCCC)[C@@](C)(OC(C)=O)C[C@H](OC(=O)CCCCCNC(=O)[C@@H](N)CC(C)C)[C@@]1(O)[C@H]2O[C@H](O)[C@@]1(C)O stay below 0.4?
// result true

// query Is 0.4 strictly greater than the compound's reported RIC50? compound: C/C=C(/C)C(=O)O[C@H]1C(C)=C2[C@H]([C@@H]1OC(=O)CCCCC)[C@@](C)(OC(C)=O)C[C@H](OC(=O)CCC)[C@@]1(O)[C@H]2O[C@@H](OCC)[C@@]1(C)O
// result false
